# Test system: NIM1;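 further: KINOMEscan kinase panel screen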
# Construct: gene MGC42105
# measurement conditions: concentration: 1 μM, replicates: in singlicate; n = 1
Reported %Inh values follow for various compounds

compound	%Inh (%)
Cn1ccc2ncnc(Oc3cccc(C(=O)Nc4ccccc4)c3)c21	0
Cl.c1ccc(-c2n[nH]cc2-c2ccnc(-c3ccc(CN4CCOCC4)cc3)c2)nc1	0
CC(C)(C)c1ccc(C(=O)Nc2cn3cc(Cl)ccc3n2)cc1	0
Fc1cc(Cl)ccc1Nc1ccnc2cc(I)ccc12	19
Cc1c(Cn2ccn3c(=O)cc(N4CCOCC4)nc23)cccc1C(F)(F)F	7
Cc1csc(-c2nc(Nc3ccncc3)c3ccccc3n2)n1	40
COC(=O)c1c(-c2ccccc2)c2cc(OC)ccc2c(=O)n1Cc1ccccc1	0
CCCc1ccc(S(=O)(=O)NC2CCN(c3ccnc(Nc4ccc(F)cc4)n3)C2)cc1 (stereo not shown)	18
COc1cc2ncn(-c3cc(OCC4CCCO4)c(C(N)=O)s3)c2cc1OC (stereo not shown)	23
O=C(Nc1n[nH]c2nc(-c3nccs3)c(Br)cc12)C1CCCC1	0
Cc1ccc(NC(=O)Nc2cccc(Cl)c2)cc1-c1ccc(C(=O)Nc2ccncc2)cc1	11
Cl.Oc1ccc(-c2nc(-c3ccccc3)[nH]c2-c2ccncc2)cc1	38
Nc1nc(-c2nccs2)c(-c2ccnc3ccccc23)s1	5
COc1ccc(Nc2nccc(-c3cccc(NC(=O)c4cc5cc(F)ccc5[nH]4)c3)n2)cc1	13
O=C(O)COc1ncnc2cc(-c3ccc4[nH]ncc4c3)sc12	26
Cc1ccc(NC(=O)Nc2cc(C(C)(C)C)nn2-c2ccccc2)cc1	3
Cc1ccccc1-n1cnc2c(N)ncnc21	0
COC(=O)c1c(-c2ccccc2)c2cc(C(=O)O)ccc2c(=O)n1Cc1ccccc1	0
Cc1cccc(-c2nc(Nc3ccncc3)c3ccccc3n2)n1	0
Cc1cc(-c2ccc3c(c2)CC[C@@H](N[C@@H](C)c2ccccc2)C3)cnc1N.Cl	22
C[C@@H]1CCCCN1c1cc(-c2ccc3c(N)n[nH]c3c2)nc(N)n1	0
COc1cc(Nc2nccc(N3CCC(NC(=O)Nc4cc(C)ccc4C)C3)n2)cc(OC)c1OC (stereo not shown)	27
COc1ccccc1-c1ccc2c(NC(=O)C3CC3)n[nH]c2n1	19
O=C(Nc1n[nH]c2cc(-c3cccc(F)c3F)ccc12)C1CC1	0
Cc1cccc(-c2nc(-c3ccc(S(C)(=O)=O)cc3)sc2-c2ccnc(NCCc3ccccc3)c2)c1	0
Cl.NC(=O)c1cccc(Nc2nccc(Nc3ccc(Oc4cccc(Cl)c4)c(Cl)c3)n2)c1	29
Cc1nnc(-c2ccc3occ(-c4ccc(S(C)=O)cc4)c3c2)[nH]1 (stereo not shown)	0
Cn1ccc2ncnc(Oc3ccc(Nc4nc5ccccc5[nH]4)cc3)c21	0

* * *

Measured pKd (PDGFRB)
pKd: −log10 of the molar value.

compound	censor symbol	pKd
COC(=O)c1c(-c2ccccc2)c2cc(C(=O)O)ccc2c(=O)n1Cc1ccccc1	=	7.12
CC(=O)Nc1nc2cnc(Nc3cc(NC(=O)c4cccc(CCC#N)c4)ccc3C)nc2s1	<	5.00
Fc1cc(Cl)ccc1Nc1ccnc2cc(I)ccc12 [GW551191]	=	6.39
Cc1ccc(NC(=O)Nc2cc(C(C)(C)C)nn2-c2ccccc2)cc1 [GSK1014915]	=	6.47
Cn1ccc2ncnc(Oc3ccc(NC(=O)Nc4ccccc4)cc3)c21	=	7.80
Cc1ccc(C(=O)Nc2ccc(Nc3ccnc4cc(-c5ccccn5)ccc34)cc2O)cc1.Cl [GW440146]	=	6.32
O=C(Nc1ccccc1)Nc1cccc(Oc2ccc3nccn3n2)c1	=	9.00
Fc1cc(Cl)ccc1Nc1ccnc2cc(-c3ccc(CN4CCCCC4)o3)ccc12 [GW560116]	=	6.68
COC(=O)c1c(-c2ccccc2)c2cc(OC)ccc2c(=O)n1Cc1ccccc1	=	6.96
Cc1cccc(-c2nc(-c3ccc(S(C)(=O)=O)cc3)sc2-c2ccnc(NCCc3ccccc3)c2)c1	=	7.17
